Can you tell me MIC for the items I'm about to list?
system: Bacillus anthracis No. 119; assay: microbe, parasite or virus in culture; assay type: cell-based; details: NO.119, 24 h, read-out: Minimum Inhibitory Concentration
Return type: number; implicit unit µg/mL.

(Q) Give MIC for the following molecule: CCC(=O)OC1CC(=O)OC(C)CC=CC=CC(OC(C)=O)C(C)CC(CC=O)C(OC2OC(C)C(OC3CC(C)(OC(=O)CC)C(OC(=O)CC)C(C)O3)C(N(C)C)C2O)C1OC (centres unmarked) [Compound No. 6]
(A) 0.78

(Q) Give MIC for the following molecule: CCC(=O)OC1C=CC=CCC(C)OC(=O)CC(OC(=O)CC)C(OC)C(OC2OC(C)C(OC3CC(C)(OC(=O)CC)C(OC(=O)CC)C(C)O3)C(N(C)C)C2O)C(CC=O)CC1C (centres unmarked) [Compound No. 7]
(A) 0.78

(Q) Give MIC for the following molecule: CCC(=O)OC1CC(=O)OC(C)CC=CC=CC(OC(C)=O)C(C)CC(CC=O)C(OC2OC(C)C(OC3CC(C)(OC(=O)CC)C(OC(=O)CC(C)C)C(C)O3)C(N(C)C)C2O)C1OC (centres unmarked) [Compound No. 4]
(A) 1.56

(Q) Give MIC for the following molecule: CCC(=O)OC1CC(=O)OC(C)CC=CC=CC(OC(C)=O)C(C)CC(CC=O)C(OC2OC(C)C(OC3CC(C)(OC(=O)CC)C(OC(C)=O)C(C)O3)C(N(C)C)C2O)C1OC (centres unmarked) [Compound No. 1]
(A) 0.78

(Q) Give MIC for the following molecule: CCC(=O)OC1C=CC=CCC(C)OC(=O)CC(OC(=O)CC)C(OC)C(OC2OC(C)C(OC3CC(C)(OC(=O)CC)C(OC(C)=O)C(C)O3)C(N(C)C)C2O)C(CC=O)CC1C (centres unmarked) [Compound No. 5]
(A) 0.78

These entries and their values trace back to patent US4017607A.
